Target: MC-5R (Homo sapiens, UniProt P33032)
Sequence (P33032 whole entry): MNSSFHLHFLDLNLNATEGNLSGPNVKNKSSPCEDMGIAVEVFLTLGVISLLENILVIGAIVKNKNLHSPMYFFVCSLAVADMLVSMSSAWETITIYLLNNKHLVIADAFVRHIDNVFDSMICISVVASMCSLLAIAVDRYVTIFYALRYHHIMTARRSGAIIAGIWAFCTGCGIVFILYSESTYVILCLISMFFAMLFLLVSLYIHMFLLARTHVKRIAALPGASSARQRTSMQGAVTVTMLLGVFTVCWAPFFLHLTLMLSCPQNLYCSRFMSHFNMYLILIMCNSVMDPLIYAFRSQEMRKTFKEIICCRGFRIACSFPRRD
Experiment: cAMP accumulation via β-galactosidase (β-Gal) reporter system (cAMP Hunter GPCR assay)
Assay type: cell-based
Details: ratio of EC-50 values, MC-5R versus MC-4R
Where a SMILES comes first, the peptide text is derived from it. Bridges are numbered along the chain shown (N, C = ends). [ ]: non-standard residue; d: D form. Pen = CC(C)(S)[C@H](N)C(=O)O; hCys = N[C@@H](CCS)C(=O)O
Measurement Label: Selectivity Ratios MC4R/MC5R
Answers are plain numbers.

| Compound | Numeric Result |
| --- | --- |
| CC(=O)N[C@@H](CCCNC(=N)N)C(=O)N[C@H]1CCSSC(C)(C)[C@@H](C(N)=O)NC(=O)[C@H](Cc2c[nH]c3ccccc23)NC(=O)[C@H](CCCNC(=N)N)NC(=O)[C@@H](Cc2ccccc2)NC(=O)[C@H](CO)NC1=O [Compound 001556C, Ac-Arg-(hCys-Ser-D-Phe-Arg-Trp-Pen)-NH2] (Ac-R[hCys]S[dF]RW[Pen]-NH2; disulfide 2-7) | 916.48 |

Read the next record carefully.
Note to self: Selectivity Ratios MC4R/MC5R of CC(=O)N[C@@H](CCCNC(=N)N)C(=O)N[C@H]1CCSSC(C)(C)[C@@H](C(N)=O)NC(=O)[C@H](Cc2c[nH]c3ccccc23)NC(=O)[C@H](CCCNC(=N)N)NC(=O)[C@@H](Cc2ccccc2)NC(=O)[C@H](CCC(N)=O)NC1=O [Compound 001555C, Ac-Arg-(hCys-Gln-D-Phe-Arg-Trp-Pen)-NH2] (Ac-R[hCys]Q[dF]RW[Pen]-NH2; disulfide 2-7) with MC-5R (Homo sapiens, UniProt P33032) was 639.81

These entries and their values trace back to patent US20220226425A1.
